Biological target: DgoR (WT DgoR-6XHis) (Escherichia coli)
Sequence (P31460 1-229): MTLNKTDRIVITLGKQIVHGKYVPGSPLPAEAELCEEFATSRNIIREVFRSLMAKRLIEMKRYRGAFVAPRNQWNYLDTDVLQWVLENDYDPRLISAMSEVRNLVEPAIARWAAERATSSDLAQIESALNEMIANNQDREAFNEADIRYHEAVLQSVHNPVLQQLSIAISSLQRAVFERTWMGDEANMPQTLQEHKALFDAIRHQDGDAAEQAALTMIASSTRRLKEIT
readout: Kd (µM)
Entry rule: numbers only, all in µM.

Problem: Query: Kd; subject: O=C(O)[C@H](O)[C@@H](O)[C@@H](O)[C@H](O)CO [D-galactonate]
Result: 8.4

---

Target: DgoR (WT DgoR-6XHis) (Escherichia coli, UniProt P31460, M188I)
Assay: label-free microscale thermophoresis
readout: Kd (µM)
Numbers only here, please. The scale is µM.

Problem: # Kd lookup, item O=C(O)[C@H](O)[C@@H](O)[C@@H](O)[C@H](O)CO [D-galactonate]
Result: 11.3

---

Biological target: DgoR (WT DgoR-6XHis) (Escherichia coli, UniProt P31460, S171L)
Experiment: label-free microscale thermophoresis
readout: Kd (µM)
Please give a number only; it is taken to be in µM.

Problem: Query (compound): O=C(O)[C@H](O)[C@@H](O)[C@@H](O)[C@H](O)CO [D-galactonate] ; field requested: Kd
Result: 20.1
